A collection of binders and their measured corrected association response
# Measured On: recombinant human OX40 (Acro Biosystems, cat. no. OXO-H5224) (human) (UniProt P43489)
# Sequence (P43489 29-216 limits assumed): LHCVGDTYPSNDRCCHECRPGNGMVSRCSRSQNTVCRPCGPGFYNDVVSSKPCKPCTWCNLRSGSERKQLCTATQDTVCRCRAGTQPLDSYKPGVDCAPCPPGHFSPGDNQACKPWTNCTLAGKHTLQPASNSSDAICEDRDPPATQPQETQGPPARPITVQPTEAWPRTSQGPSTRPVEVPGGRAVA
# Method Notes: BLI cross-block; competitor (immobilized 1st Ab): IgG1-CD134-Hu106

Binder	corrected association response, nm
IgG1-CD134-RG7888 (antibody, INN chains, looked up, V domains shown, IgG1) VH: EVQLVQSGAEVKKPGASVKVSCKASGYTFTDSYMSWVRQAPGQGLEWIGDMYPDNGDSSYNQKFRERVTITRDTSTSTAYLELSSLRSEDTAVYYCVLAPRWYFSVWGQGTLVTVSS VL: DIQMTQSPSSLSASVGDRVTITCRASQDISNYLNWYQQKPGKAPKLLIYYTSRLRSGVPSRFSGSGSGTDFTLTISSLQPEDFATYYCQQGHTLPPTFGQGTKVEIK	0.1
IgG1-CD134-GBR830 (antibody, INN chains, looked up, V domains shown, IgG1) VH: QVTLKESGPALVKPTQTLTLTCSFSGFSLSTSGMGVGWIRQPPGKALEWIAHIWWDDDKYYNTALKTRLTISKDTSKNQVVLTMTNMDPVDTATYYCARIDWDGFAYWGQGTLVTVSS VL: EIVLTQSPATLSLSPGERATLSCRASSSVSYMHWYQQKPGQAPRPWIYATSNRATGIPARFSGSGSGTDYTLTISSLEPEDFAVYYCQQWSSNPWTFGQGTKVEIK	0.02
IgG1-CD134-MEDI0562 (antibody, INN chains, looked up, V domains shown, IgG1) VH: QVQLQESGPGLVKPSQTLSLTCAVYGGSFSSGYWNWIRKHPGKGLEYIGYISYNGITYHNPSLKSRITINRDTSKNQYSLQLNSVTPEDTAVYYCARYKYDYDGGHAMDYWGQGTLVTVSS VL: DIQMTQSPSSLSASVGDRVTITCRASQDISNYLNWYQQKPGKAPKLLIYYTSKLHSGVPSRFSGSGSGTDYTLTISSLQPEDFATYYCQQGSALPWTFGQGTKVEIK	0.69
IgG1-CD134-ABBV368 (antibody, INN chains, looked up, V domains shown, IgG1) VH: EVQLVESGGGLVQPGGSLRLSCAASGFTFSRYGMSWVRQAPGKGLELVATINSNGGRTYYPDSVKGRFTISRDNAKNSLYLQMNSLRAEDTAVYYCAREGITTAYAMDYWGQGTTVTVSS VL: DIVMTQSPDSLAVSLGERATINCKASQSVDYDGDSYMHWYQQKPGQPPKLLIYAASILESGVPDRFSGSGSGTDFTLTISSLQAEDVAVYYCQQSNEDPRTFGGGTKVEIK	0
